Assay: Cytotoxicity against human 16HBE14o- assessed as inhibition of cell growth incubated for 24 hrs
Type: toxicity, cell-based
Details: 16HBE14o- cells
measurementLabel: CC50 at 24 h

> print(dat)
                          structureassmiles     obsvalue
1  CCN(CC)c1ccc(/C=N/CCNC(=O)CCn2ccc3ccccc32)c(O)c1  > 200 µg/mL

* * *

System: Candida albicans
Experiment: Antifungal activity against fluconazole-resistant Candida albicans ATCC10231FR assessed as inhibition of fungal growth by microdilution method
Type: functional, organism-based
measurementLabel: IC50

> print(dat)
                           structureassmiles  experimentaltarget  measurementlabel     obsvalue
 1  O=C(CCn1ccc2ccccc21)NCC/N=C/c1ccc(OCc2ccccc2)cc1O    Candida albicans              IC50     18 µg/mL
 2        OC(Cn1cncn1)(Cn1cncn1)c1ccc(F)cc1F    Candida albicans              IC50  > 200 µg/mL
 3  O=C(CCn1ccc2ccccc21)NCC/N=C/c1ccc(F)c(C(F)(F)F)c1    Candida albicans              IC50  > 200 µg/mL
 4  O=C(CCn1ccc2ccccc21)NCC/N=C/c1ccc(Br)cc1    Candida albicans              IC50  > 200 µg/mL
 5  O=C(CCn1ccc2ccccc21)NCC/N=C/c1ccc(OC(F)(F)F)cc1    Candida albicans              IC50     29 µg/mL
 6  CCN(CC)c1ccc(S(=O)(=O)NCCNC(=O)CCn2ccc3ccccc32)c(O)c1    Candida albicans              IC50  > 200 µg/mL
 7  Cc1ccc(S(=O)(=O)NCCNC(=O)CCn2ccc3ccccc32)cc1    Candida albicans              IC50  > 200 µg/mL
 8  O=C(CCn1ccc2ccccc21)NCCNS(=O)(=O)c1cc(Cl)c(F)cc1F    Candida albicans              IC50  > 200 µg/mL
 9  O=C(CCn1ccc2ccccc21)NCCNS(=O)(=O)c1ccc(F)c(C(F)(F)F)c1    Candida albicans              IC50  > 200 µg/mL
10  O=C(CCn1ccc2ccccc21)NCCNS(=O)(=O)c1cc([N+](=O)[O-])ccc1O    Candida albicans              IC50  > 200 µg/mL
11  O=C(CCn1ccc2ccccc21)NCC/N=C/c1ccc(Cl)c(C(F)(F)F)c1    Candida albicans              IC50     24 µg/mL
12  O=C(CCn1ccc2ccccc21)NCCNS(=O)(=O)c1ccc(OC(F)(F)F)cc1    Candida albicans              IC50  > 200 µg/mL
13  COc1cc(O)c(/C=N/CCNC(=O)CCn2ccc3ccccc32)c(OC)c1    Candida albicans              IC50     86 µg/mL
14  O=C(CCn1ccc2ccccc21)NCCNS(=O)(=O)c1cc(Br)ccc1O    Candida albicans              IC50  > 200 µg/mL
15  CCN(CC)c1ccc(/C=N/CCNC(=O)CCn2ccc3ccccc32)c(O)c1    Candida albicans              IC50     21 µg/mL
